Tested on: CCRF-CEM leukemia
Test description: NCI-60 one-dose screen, 48 h
Condition summary: 10 µM unless noted
About 83,000 compounds went through this panel and 20% of them were active in at least one assay; those are over-represented in the sample as a whole. The source made the active and inactive calls. Rule for the calls: active = growth percent below 10; inactive = the rest.
Select the correct class. Options are 1 (yes) (active), 0 (no) (inactive) and nothing else.

Molecule	Assigned label
c1cc(CNCCNCc2ccncc2)ccn1	0 (no)

Outcome? Cc1c(-c2ccc(C3CCCCC3)cc2)nc2ccc(F)cc2c1C(=O)O 0 (no)

Also CC(CC(CCC(=O)O)(c1ccccc1)c1ccccc1)N(C)C (stereo not drawn) ? 0 (no)

Item: O=C(NC1CCCCC1)c1ccc(Cl)cc1 0 (no)

Please answer likewise for COc1ccc(Br)c2c1C(=O)CC2 0 (no)

Another molecule to look at: COC(=O)Cc1cc(COC(C)=O)ccc1C 0 (no)

Consider next the molecule CCCCCCCCCCCCCCCCCC(=O)NCCNC(=O)CCCCCCCCCCCCCCCCC in the same way. 0 (no)

Same thing, different molecule: Cc1cc(=O)n(Nc2ccccc2)c(O)c1C#N 0 (no)

Subsequent entry: N=C(N)c1nn(C2OC(CO)C(O)C2O)c2nc[nH]c(=O)c12 (stereo not drawn) 1 (yes)

Try this molecule next: N#Cc1ccc2nc[nH]c2c1 0 (no)

Same thing, different molecule: NCC(O)C(O)C(O)C(O)CO (stereo not drawn) 0 (no)

One more molecule: Cc1cc(C(=O)c2ccccc2)cc(C)c1O 1 (yes)

# iterate: Clc1ccc(-c2noc(/C=C\c3ccccc3)n2)cc1 0 (no)

====

Tested on: SW-620 colon
Test description: NCI-60 one-dose screen, 48 h (100 = growth as untreated, 0 = no growth, -100 = all killed)
Condition summary: 10 µM unless noted
The panel holds about 83,000 compounds, 20% with a hit somewhere; the sample as a whole holds those more often. Activity calls are given as the source filed them. How the source made its calls: active means growth percent below 10; inactive means the rest.
Assay metric: growth

Compound	growth
CCOC(=O)C1(N)CCCCC1	103% (inactive)
CCNCC(C)(C)O	106% (inactive)
NCCCN1CCCC1=O	108% (inactive)
CCOC(=O)N[C@H]1CCc2cc(OC)c(OC)c(OC)c2-c2ccc(SC)c(=O)cc21	17.4% (inactive)
NCC(O)C(O)C(O)C(O)CO (stereo not given)	97.2% (inactive)
O=S1(=O)c2ccccc2Oc2ccccc21	95% (inactive)
O=C(O)c1ccccc1Cc1ccc2c(c1)CCCC2	99.5% (inactive)
Cc1ccc(C)c(CCO)c1	98.3% (inactive)
c1ccc(Nc2ccccn2)nc1	108% (inactive)
COC(=O)C1(CC(C)=O)NC(=S)NC(=O)C1C#N (stereo not given)	102% (inactive)

Please look up its growth: CCC(=O)Oc1ccc2ccccc2c1 85.7% (inactive)

Continue with CC(=O)C1C(=O)C(=O)N(c2cccc([N+](=O)[O-])c2)C1=O (stereo not given) 111% (inactive)

Proceed to COc1ccc(C)cc1NC(=O)SC(C)C 99.8% [100 µM] (inactive)

Then this compound: COc1ccc(Br)c2c1C(=O)CC2 123% (inactive)

Next up: Clc1ncnc2nc[nH]c12 103% (inactive)

====

Tested on: K-562 leukemia
Test description: NCI-60 one-dose screen, 48 h (100 = growth as untreated, 0 = no growth, -100 = all killed)
Condition summary: 10 µM unless noted
Compounds without any hit were thinned out: in the full panel of roughly 83,000, 20% have a hit.
Listed below: growth values for each entry.
# unit: % | format: bare number

Below are worked cases with known answers.
Molecule	Experimental target	growth, %
C=CCC(OC(C)=O)c1ccc(OC)c(OC)c1 (stereo unspecified)	K-562 leukemia	116
C=CC(C)(C)n1cc(C2=C(O)C(=O)C(c3cn(C(C)(C)C=C)c4ccccc34)=C(O)C2=O)c2ccccc21	K-562 leukemia	79.5
Cn1c(=O)c2[nH]c(CCCCC(=O)O)nc2n(C)c1=O	K-562 leukemia	109
COC1OC(C(O)C(O)CO)C(O)C(O)C1O (stereo unspecified)	K-562 leukemia	104
CCCCN(C=S)CCCC	K-562 leukemia	113
Cc1c(-c2ccc(C3CCCCC3)cc2)nc2ccc(F)cc2c1C(=O)O	K-562 leukemia	22.9
Cc1ccc(NC(=O)c2ccccc2Cl)cc1	K-562 leukemia	99.6
O=C(O)CC1=CCCCC1	K-562 leukemia	102

Could you share which growth value was measured for CCCCCCCCCCCCCCCCCC(=O)NCCNC(=O)CCCCCCCCCCCCCCCCC ? 57.4

Check O=C(O)c1cccc(-n2ncc(Cl)c(Cl)c2=O)c1 too. 109

Next molecule: CN1C(=O)NC(c2ccc(Cl)cc2)(c2ccc(Cl)cc2)C1=O 70.1
